Read-out: Thrombomodulin, THBD (gene 7056)
Assay: BSK_CASM3C_Thrombomodulin: BioMAP Diversity Plus: CASM3C Assay for Thrombomodulin Biomarker Activity (AID 2283051);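 also: thrombomodulin protein level measured by ELISA 24 h after dosing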
Conditions: primary human coronary artery smooth muscle cells; actives raise or lower the signal
Active and inactive are the calls of the source. The calls were made as follows: active = hit-call score of the fitted dose curve at least 0.9, where 1 is the maximum; inactive = score below 0.9.
Parameter: AC50

- COc1cnc(OC)n2nc(NS(=O)(=O)c3c(OCC(F)F)cccc3C(F)(F)F)nc12: inactive
- CCOc1cc(Oc2ccc(C(F)(F)F)cc2Cl)ccc1[N+](=O)[O-]: inactive
- CO/C=C(/C(=O)OC)c1ccccc1Oc1cc(Oc2ccccc2C#N)ncn1: inactive
- C#CCOS(=O)OC1CCCCC1Oc1ccc(C(C)(C)C)cc1 (stereo unspecified): 5.22 µM (active)
- CCNc1nc(Cl)nc(NC(C)C)n1: inactive
- Cc1c(F)c(F)c(COC(=O)C2C(/C=C(\Cl)C(F)(F)F)C2(C)C)c(F)c1F (stereo unspecified): 14 µM (active)
- CCON=C(CC)C1=C(O)CC(c2c(C)cc(C)cc2C)CC1=O (stereo unspecified): inactive
- COC(=O)C(C)Oc1ccc(Oc2ccc(Cl)cc2Cl)cc1 (stereo unspecified): inactive
- COc1nc(C)nc(NC(=O)NS(=O)(=O)c2ccccc2Cl)n1: inactive
- N#Cc1cc(Br)c(O)c(Br)c1: inactive
- CNC(=O)ON=CC(C)(C)SC: inactive
